Measured values drawn from paper PMC9015904 for this set.

Each entry below carries its recorded EC50.
Target: hMOR (Homo sapiens, UniProt P35372)
Sequence (P35372 whole entry): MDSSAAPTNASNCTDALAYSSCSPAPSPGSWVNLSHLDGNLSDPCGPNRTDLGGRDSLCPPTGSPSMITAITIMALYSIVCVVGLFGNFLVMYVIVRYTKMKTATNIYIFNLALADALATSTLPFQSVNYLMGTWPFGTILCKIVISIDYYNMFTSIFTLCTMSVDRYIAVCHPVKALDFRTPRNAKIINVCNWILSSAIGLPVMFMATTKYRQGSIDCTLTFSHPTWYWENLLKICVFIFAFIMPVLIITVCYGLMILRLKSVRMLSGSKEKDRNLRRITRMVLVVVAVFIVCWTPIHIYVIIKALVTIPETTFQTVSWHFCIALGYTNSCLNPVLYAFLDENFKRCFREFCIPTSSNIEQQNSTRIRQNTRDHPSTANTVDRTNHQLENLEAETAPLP
Test: GTPγS functional assay, MOR
measureName: EC50 (nM)

{"columns": ["chemicalStructure", "studyTarget", "limitQualifier", "reportedValue"],
 "data": [
  ["COC(=O)[C@@H]1C[C@H](OC(=O)c2n[nH]c3ccccc23)C(=O)[C@H]2[C@@]1(C)CC[C@H]1C(=O)O[C@H](c3ccoc3)C[C@]21C", "hMOR (Homo sapiens, UniProt P35372)", ">", 10000],
  ["COC(=O)[C@@H]1C[C@H](OC(=O)c2cc3cccc(F)c3[nH]2)C(=O)[C@H]2[C@@]1(C)CC[C@H]1C(=O)O[C@H](c3ccoc3)C[C@]21C", "hMOR (Homo sapiens, UniProt P35372)", "=", 132],
  ["COC(=O)[C@@H]1C[C@H](OC(=O)[C@H]2Cc3ccccc3N2)C(=O)[C@H]2[C@@]1(C)CC[C@H]1C(=O)O[C@H](c3ccoc3)C[C@]21C", "hMOR (Homo sapiens, UniProt P35372)", "=", 840]
]}

* * *

Target: hKOR (Homo sapiens)
Sequence (P41145 whole entry): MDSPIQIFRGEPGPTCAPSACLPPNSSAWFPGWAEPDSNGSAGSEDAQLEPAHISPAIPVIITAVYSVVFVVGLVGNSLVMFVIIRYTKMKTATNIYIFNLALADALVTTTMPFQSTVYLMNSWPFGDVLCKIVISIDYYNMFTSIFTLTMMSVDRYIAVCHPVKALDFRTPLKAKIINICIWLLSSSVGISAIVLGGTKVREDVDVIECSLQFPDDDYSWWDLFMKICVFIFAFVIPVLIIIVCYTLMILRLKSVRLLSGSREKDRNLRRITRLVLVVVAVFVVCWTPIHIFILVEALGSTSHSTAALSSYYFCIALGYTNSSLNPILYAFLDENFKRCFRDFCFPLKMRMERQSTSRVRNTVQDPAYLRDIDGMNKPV
Experiment: biochemical
Format: binding
pKd: −log10 of the molar value.
measureName: pKd

{"columns": ["chemicalStructure", "reportedValue"],
 "data": [
  ["COC(=O)[C@@H]1C[C@H](OC(=O)c2cc3ccc(F)cc3[nH]2)C(=O)[C@H]2[C@@]1(C)CC[C@H]1C(=O)O[C@H](c3ccoc3)C[C@]21C", 7.77],
  ["COC(=O)[C@@H]1C[C@H](OC(=O)c2cc3cc(F)ccc3[nH]2)C(=O)[C@H]2[C@@]1(C)CC[C@H]1C(=O)O[C@H](c3ccoc3)C[C@]21C", 7.01],
  ["COC(=O)[C@@H]1C[C@H](OC(=O)c2cc3ccccn3c2)C(=O)[C@H]2[C@@]1(C)CC[C@H]1C(=O)O[C@H](c3ccoc3)C[C@]21C", 7.74],
  ["COC(=O)[C@@H]1C[C@H](OC(=O)c2cc3cccc(F)c3[nH]2)C(=O)[C@H]2[C@@]1(C)CC[C@H]1C(=O)O[C@H](c3ccoc3)C[C@]21C", 7.27],
  ["COC(=O)[C@@H]1C[C@H](OC(=O)[C@@H]2Cc3ccccc3N2)C(=O)[C@H]2[C@@]1(C)CC[C@H]1C(=O)O[C@H](c3ccoc3)C[C@]21C", 7.49],
  ["COC(=O)[C@@H]1C[C@H](OC(=O)C2=Cc3ccccc3C2)C(=O)[C@H]2[C@@]1(C)CC[C@H]1C(=O)O[C@H](c3ccoc3)C[C@]21C", 7.30],
  ["COC(=O)[C@@H]1C[C@H](OC(=O)c2cc3c(F)cccc3[nH]2)C(=O)[C@H]2[C@@]1(C)CC[C@H]1C(=O)O[C@H](c3ccoc3)C[C@]21C", 7.24],
  ["COC(=O)[C@@H]1C[C@H](OC(=O)c2nc3ccccc3s2)C(=O)[C@H]2[C@@]1(C)CC[C@H]1C(=O)O[C@H](c3ccoc3)C[C@]21C", 7.04],
  ["COC(=O)[C@@H]1C[C@H](OC(=O)[C@H]2Cc3ccccc3N2)C(=O)[C@H]2[C@@]1(C)CC[C@H]1C(=O)O[C@H](c3ccoc3)C[C@]21C", 6.89],
  ["COC(=O)[C@@H]1C[C@H](OC(=O)C2=CCc3ccccc32)C(=O)[C@H]2[C@@]1(C)CC[C@H]1C(=O)O[C@H](c3ccoc3)C[C@]21C", 7.21],
  ["COC(=O)[C@@H]1C[C@H](OC(=O)C2Cc3ccccc3C2)C(=O)[C@H]2[C@@]1(C)CC[C@H]1C(=O)O[C@H](c3ccoc3)C[C@]21C", 5.90]
]}

* * *

Biological target: hMOR (Homo sapiens)
Experiment: GTPγS functional assay, MOR
measureName: EC50 (nM)

{"columns": ["compound", "measureName", "unitAbbrev", "limitQualifier", "reportedValue"],
 "data": [
  ["COC(=O)[C@@H]1C[C@H](OC(=O)c2cc3c(F)cccc3[nH]2)C(=O)[C@H]2[C@@]1(C)CC[C@H]1C(=O)O[C@H](c3ccoc3)C[C@]21C [Compound 7]", "EC50", "nM", "=", 211],
  ["COC(=O)[C@@H]1C[C@H](OC(=O)c2nc3ccccc3[nH]2)C(=O)[C@H]2[C@@]1(C)CC[C@H]1C(=O)O[C@H](c3ccoc3)C[C@]21C [Compound 6]", "EC50", "nM", ">", 10000],
  ["COC(=O)[C@@H]1C[C@H](OC(=O)[C@@H]2Cc3ccccc3N2)C(=O)[C@H]2[C@@]1(C)CC[C@H]1C(=O)O[C@H](c3ccoc3)C[C@]21C [Compound 14]", "EC50", "nM", ">", 10000],
  ["COC(=O)[C@@H]1C[C@H](OC(=O)c2cc3ccccn3c2)C(=O)[C@H]2[C@@]1(C)CC[C@H]1C(=O)O[C@H](c3ccoc3)C[C@]21C [Compound 12]", "EC50", "nM", "=", 200],
  ["COC(=O)[C@@H]1C[C@H](OC(=O)c2cc3ccc(F)cc3[nH]2)C(=O)[C@H]2[C@@]1(C)CC[C@H]1C(=O)O[C@H](c3ccoc3)C[C@]21C [Compound 9]", "EC50", "nM", "=", 973],
  ["COC(=O)[C@@H]1C[C@H](OC(=O)C2=CCc3ccccc32)C(=O)[C@H]2[C@@]1(C)CC[C@H]1C(=O)O[C@H](c3ccoc3)C[C@]21C [Compound 1]", "EC50", "nM", ">", 10000],
  ["COC(=O)[C@@H]1C[C@H](OC(=O)C2Cc3ccccc3C2)C(=O)[C@H]2[C@@]1(C)CC[C@H]1C(=O)O[C@H](c3ccoc3)C[C@]21C [Compound 3]", "EC50", "nM", ">", 10000]
]}

* * *

Target: hMOR (Homo sapiens, UniProt P35372)
pKd: −log10 of the molar value.
Each entry below carries its recorded pKd.

{"columns": ["compound", "pKd"],
 "data": [
  ["COC(=O)[C@@H]1C[C@H](OC(=O)C2Cc3ccccc3C2)C(=O)[C@H]2[C@@]1(C)CC[C@H]1C(=O)O[C@H](c3ccoc3)C[C@]21C [Compound 3]", 5.52],
  ["COC(=O)[C@@H]1C[C@H](OC(=O)c2n[nH]c3ccccc23)C(=O)[C@H]2[C@@]1(C)CC[C@H]1C(=O)O[C@H](c3ccoc3)C[C@]21C [Compound 5]", 6.68],
  ["COC(=O)[C@@H]1C[C@H](OC(=O)[C@@H]2Cc3ccccc3N2)C(=O)[C@H]2[C@@]1(C)CC[C@H]1C(=O)O[C@H](c3ccoc3)C[C@]21C [Compound 14]", 7.11]
]}
